B1: VPS39 (parent)
chain: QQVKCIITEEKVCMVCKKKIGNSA

variants of: B1; assay: protein stability index of a GFP-peptide fusion (GPS, HEK-293T) (PSI 1-6); higher = more stable; settings: c terminus: a fixed tail appended;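 also: lentivirally expressed fusions sorted by FACS into six bins by GFP to DsRed ratio, PSI derived from sequencing read proportions per bin multiplied by bin number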
Quick rule for you: protein stability index at 3 or higher means MET, lower means NOT MET.

Worked examples, 3 variants total:
Task: Quick check, protein stability index >= 3? QQYKCIITEEKVCMVCKKKIGNSA [V3Y]
Result: NOT MET

Task: Quick check, protein stability index >= 3? QQVKCIITEEHVCMVCKKKIGNSA [K11H]
Result: MET

Task: Quick check, protein stability index >= 3? QQVICIITEEKVCMVCKKKIGNSA [K4I]
Result: NOT MET

New cases:
Task: Quick check, protein stability index >= 3? HQVKCIITEEKVCMVCKKKIGNSA [Q1H]
Result: NOT MET

Task: Quick check, protein stability index >= 3? QQVYCIITEEKVCMVCKKKIGNSA [K4Y]
Result: NOT MET
